- Test system: ACHN
- assayText: NCI tumour cell line growth inhibition, 48 h
The source made the active and inactive calls. Rule as the data show it: active = GI50 up to about 1.1 µM and inactive = higher.
valueType: GI50

Completed entries (count: 3):
molecule: N#CC(c1ccnc(Cl)n1)c1nc2ccccc2s1 (stereo not given)
valueType: GI50
result: 13.7 µM (inactive)
--
molecule: O=C1Nc2ccc(Br)cc2/C1=N/Nc1ccccc1[N+](=O)[O-]
valueType: GI50
result: 3.83 µM (inactive)
--
molecule: CCCNC(=O)Cn1c(-c2ccccc2)cc2ccccc21
valueType: GI50
result: 71.8 µM (inactive)

// switching to the query molecule
Input: Notebook: pull reported GI50 for ACHN, entry "COc1ccc(S(=O)(=O)Nc2ccc(-c3csc(N4C(=O)/C(=C/c5cccs5)N=C4c4ccccc4)n3)cc2)cc1Cl"
Output: 35.4 µM (inactive)
